Target: glucagon receptor (Homo sapiens)
Construct: expressed in transfected cells; host or cells: HEK293
Assay: Functional assay-cAMP synthesis, luciferase reporter in HEK293 cells co-transfected with glucagon receptor
Assay type: cell-based
Conditions: Glucagon Receptor EC50(nM), Table 10, GLP-1 17-26 glucagon analogs
Where no end group is shown, it is not given here.
assayMetric: EC50 (nM)

(P) HSQGTFTSDYSKYLDEQAAKEFIAWLMNT-NH2 [E16 GLP(17-26)Glu(27-29)-NH2, HSQGTFTSDYSKYLDEQAAKEFIAW LMNTa]
(Q) HSQGTFTSDYSKYLDEQAAKEFIEWLVKG-NH2 [E16 GLP(17-29)-NH2 E24, K28]
(R) HSQGTFTSDYSKYLDEQAAKEFIAWLVKG-NH2 [E16 GLP(17-29)-NH2, HSQGTFTSDYSKYLDEQAAKEFIAW LVKGa]
[in] Kindly order the items shown according to EC50, from the highest value down. Please reply with the labels ordered as requested. Many thanks.
[out] R, Q, P

----------
Molecular target: GLP-1 receptor (Homo sapiens, UniProt P43220)
Construct: expressed in transfected cells; host or cells: HEK293
Sequence (P43220 24-463, species assumed): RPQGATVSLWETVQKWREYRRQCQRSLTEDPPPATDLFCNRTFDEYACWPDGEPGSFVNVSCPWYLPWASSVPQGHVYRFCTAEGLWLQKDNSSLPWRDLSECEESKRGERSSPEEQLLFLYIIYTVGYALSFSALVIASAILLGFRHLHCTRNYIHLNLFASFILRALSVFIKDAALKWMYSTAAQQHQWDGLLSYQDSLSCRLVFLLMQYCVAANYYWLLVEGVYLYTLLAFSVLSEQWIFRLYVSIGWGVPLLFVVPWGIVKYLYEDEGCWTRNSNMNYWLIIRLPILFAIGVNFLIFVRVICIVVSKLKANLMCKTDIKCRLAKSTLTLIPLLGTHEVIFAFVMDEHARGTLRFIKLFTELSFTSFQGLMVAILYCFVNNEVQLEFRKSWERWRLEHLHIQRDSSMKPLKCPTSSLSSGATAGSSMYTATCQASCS
Test: Functional assay-cAMP synthesis, luciferase reporter in HEK293 cells co-transfected with GLP-1 receptor
Assay type: cell-based
Conditions: Table 12; pegylated peptide
Where no end group is shown, it is not given here. [ ]: non-standard residue; d: D form. The star is where a group is joined. Isobutyryl(2-imidazol-4-yl) = CC(C)(C(=O)*)c1c[nH]cn1; PEG = not defined here; Aib = CC(C)(N)C(=O)O
The following substances are listed with their measured Parent w/PEG % Potency Relative to Native GLP-1R values.
Write the value in % as a bare number.

Form field, Parent w/PEG % Potency Relative to Native GLP-1R with GLP-1 receptor (Homo sapiens, UniProt P43220), item HX2QGT FTSDY SKYLD EQAAK EFIC*W LMNGG PSSGA PPPSa (H[Aib]QGTFTSDYSKYLDEQAAKEFICWLMNGGPSSGAPPPS-NH2; also: optional PEG on Cys24) [X2=AIB; C* is Cys or Cys attached to PEG] : 95.4

Form field, Parent w/PEG % Potency Relative to Native GLP-1R with GLP-1 receptor (Homo sapiens, UniProt P43220), item HSQGT FTSDYSKYLD EQAAK EFIC*W LMNTa (HSQGTFTSDYSKYLDEQAAKEFIC(PEG)WLMNT-NH2; reading uncertain) [Chimera Cys24 (SEQ ID NO: 518), C* is Cys attached to PEG in the tested form] : 29.3

Form field, Parent w/PEG % Potency Relative to Native GLP-1R with GLP-1 receptor (Homo sapiens, UniProt P43220), item X1SQGT FTSDYSKYLD EQAAK EFIAW LMNC*a ([Isobutyryl(2-imidazol-4-yl)]SQGTFTSDYSKYLDEQAAKEFIAWLMNC(PEG)-NH2; reading uncertain) [Chimera DMIA1, Cys29 (SEQ ID NO: 520), X1=DMIA; C* is Cys attached to PEG in the tested form] : 27.3

Form field, Parent w/PEG % Potency Relative to Native GLP-1R with GLP-1 receptor (Homo sapiens, UniProt P43220), item HX2QGT FTSDYSKYLDEQAAKEFIAWLMNGGPSSGAPPPSC*a (H[Aib]QGTFTSDYSKYLDEQAAKEFIAWLMNGGPSSGAPPPSC-NH2; also: optional PEG on Cys40) [X2=AIB; C* is Cys or Cys attached to PEG] : 68.8

----------
Biological target: GLP-1 receptor (Homo sapiens, UniProt P43220)
Construct: expressed in transfected cells; host or cells: HEK293
Test: Functional assay-cAMP synthesis, luciferase reporter in HEK293 cells co-transfected with GLP-1 receptor
Format: cell-based
Where no end group is shown, it is not given here. [ ]: non-standard residue; d: D form. DMIA = not defined here; Aib = CC(C)(N)C(=O)O
assayMetric: Parent w/PEG % Potency Relative to Native GLP-1R (%)
Write the value in % as a bare number.

HX2QGT FTSDYSKYLDEQAAKEFIAWLMNGGPSSGAPPPSC*a (H[Aib]QGTFTSDYSKYLDEQAAKEFIAWLMNGGPSSGAPPPSC-NH2; lactam (positions not given here); also: optional PEG on Cys40) [X2=AIB; C* is Cys or Cys attached to PEG] | 63.6
X1SQGT FTSDY SKYLD ERRAK DFVC*W LMNGG PSSGA PPPSa ([DMIA]SQGTFTSDYSKYLDERRAKDFVCWLMNGGPSSGAPPPS-NH2; lactam (positions not given here); not fully specified; reading uncertain) [X1=DMIA; C* is Cys or Cys attached to PEG] | 11.3
HX2QGT FTSDY SKYLD EQAAK EFIC*W LMNGG PSSGA PPPSa (H[Aib]QGTFTSDYSKYLDEQAAKEFICWLMNGGPSSGAPPPS-NH2; lactam (positions not given here); also: optional PEG on Cys24) [X2=AIB; C* is Cys or Cys attached to PEG] | 96.4

Moving on to another substance below.
Form field, Parent w/PEG % Potency Relative to Native GLP-1R with GLP-1 receptor (Homo sapiens, UniProt P43220), item HX2QGT FTSDY SKYLD ERRAK DFVC*W LMNTa (H[Aib]QGTFTSDYSKYLDERRAKDFVCWLMNT-NH2; lactam (positions not given here); also: optional PEG on Cys24) [X2=AIB; C* is Cys or Cys attached to PEG] : 31.0

----------
Biological target: glucagon receptor (Homo sapiens, UniProt P47871)
Construct: expressed in transfected cells; host or cells: HEK293
Sequence (P47871 26-477): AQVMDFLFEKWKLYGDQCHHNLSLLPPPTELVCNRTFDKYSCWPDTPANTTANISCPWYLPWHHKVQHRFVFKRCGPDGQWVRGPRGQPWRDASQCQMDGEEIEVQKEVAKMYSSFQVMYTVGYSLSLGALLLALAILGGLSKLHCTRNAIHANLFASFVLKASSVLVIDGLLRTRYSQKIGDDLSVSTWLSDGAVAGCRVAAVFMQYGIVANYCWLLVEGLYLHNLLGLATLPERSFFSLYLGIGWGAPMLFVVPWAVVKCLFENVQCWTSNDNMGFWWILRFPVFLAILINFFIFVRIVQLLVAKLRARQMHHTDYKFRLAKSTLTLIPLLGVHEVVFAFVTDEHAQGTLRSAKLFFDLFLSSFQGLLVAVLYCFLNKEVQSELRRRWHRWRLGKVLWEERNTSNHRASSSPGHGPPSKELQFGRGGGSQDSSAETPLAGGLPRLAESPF
Assay: Functional assay-cAMP synthesis, luciferase reporter in HEK293 cells co-transfected with glucagon receptor
Type: cell-based
Conditions: Table 12; pegylated peptide
Where no end group is shown, it is not given here. PEG = not defined here
assayMetric: Parent w/PEG % Potency Relative to Native GR (%)

(a) HSQGT FTSDYSKYLD EQAAK EFIC*W LMNTa (HSQGTFTSDYSKYLDEQAAKEFIC(PEG)WLMNT-NH2; reading uncertain) [Chimera Cys24 (SEQ ID NO: 518), C* is Cys attached to PEG in the tested form]
(b) X1SQGT FTSDYSKYLD EQAAK EFIC*W LMNTa [Chimera DMIA1, Cys24 (SEQ ID NO: 519)]
[in] Form field 'greater Parent w/PEG % Potency Relative to Native GR' accepts a or b ; which applies? Give the label under which the chosen entry appears.
[out] a

----------
Biological target: glucagon receptor (Homo sapiens, UniProt P47871)
Construct: expressed in transfected cells; host or cells: HEK293
Assay: Functional assay-cAMP synthesis, luciferase reporter in HEK293 cells co-transfected with glucagon receptor
Type: cell-based
Settings: Table 12; pegylated peptide
Where no end group is shown, it is not given here. [ ]: non-standard residue; d: D form. DMIA = not defined here; PEG = not defined here; Aib = CC(C)(N)C(=O)O
The following substances are listed with their measured Parent w/PEG % Potency Relative to Native GR values.
Write the value in % as a bare number.

HX2QGT FTSDY SKYLD ERAAK DFVC*W LMNGG PSSGA PPPSa (H[Aib]QGTFTSDYSKYLDERAAKDFVC(PEG)WLMNGGPSSGAPPPS-NH2; reading uncertain) [X2=AIB; C* is Cys attached to PEG in the tested form] | 0.1
HX2QGT FTSDY SKYLD ERAAK DFVC*W LMNTa (H[Aib]QGTFTSDYSKYLDERAAKDFVC(PEG)WLMNT-NH2; reading uncertain) [E16, K20AIB2, A18 Cys24 (SEQ ID NO: 492), X2=AIB; C* is Cys attached to PEG in the tested form] | 1.1
HX2QGT FTSDY SKYLD EQAAK EFIC*W LMNGG PSSGA PPPSa (H[Aib]QGTFTSDYSKYLDEQAAKEFICWLMNGGPSSGAPPPS-NH2; lactam (positions not given here); also: optional PEG on Cys24) [X2=AIB; C* is Cys or Cys attached to PEG] | 1.4
HX2QGT FTSDYSKYLDEQAAKEFIAWLMNGGPSSGAPPPSC*a (H[Aib]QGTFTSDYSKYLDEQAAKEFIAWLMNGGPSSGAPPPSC-NH2; lactam (positions not given here); also: optional PEG on Cys40) [X2=AIB; C* is Cys or Cys attached to PEG] | 3.2

The reported Parent w/PEG % Potency Relative to Native GR of the substance HX2QGT FTSDY SKYLD EQAAK EFIC*W LMNGG PSSGA PPPSa (H[Aib]QGTFTSDYSKYLDEQAAKEFICWLMNGGPSSGAPPPS-NH2; also: optional PEG on Cys24) [X2=AIB; C* is Cys or Cys attached to PEG] was 0.2

The reported Parent w/PEG % Potency Relative to Native GR of the substance X1SQGT FTSDY SKYLD ERRAK DFVC*W LMNGG PSSGA PPPSa ([DMIA]SQGTFTSDYSKYLDERRAKDFVCWLMNGGPSSGAPPPS-NH2; lactam (positions not given here); not fully specified; reading uncertain) [X1=DMIA; C* is Cys or Cys attached to PEG] was 12.6
